I'd appreciate it if you could supply TGI values for the items below.
# Test system: SK-OV-3 ovarian
# assay_comment: NCI tumour cell line growth inhibition, 48 h

Worked set:
Cc1nsc2cc(Cl)n(C)c(=O)c12    > 100 µM
CCc1n(Cc2ccc3ccccc3c2)cc[n+]1Cc1ccc2ccccc2c1    5.73 µM
O=C(O)C(Cc1ccc(O)cc1)N=Cc1nc(-c2ccccc2)oc1O (stereo unspecified)    > 100 µM

// batch mode: one TGI value per listed entry
1. CN(C)/C=N/S(=O)(=O)c1nn2c(C=O)c(-c3ccc(-c4ccccc4)cc3)nc2s1
2. O=C1CC2=CCCC2O1 (stereo unspecified)
3. CC(=O)NC1=C(NCCO)C(=O)c2ccccc2C1=O
4. O=S(=O)([O-])c1ccc(C=Nc2ccccc2)c([O-])c1.O=S(=O)([O-])c1ccc(C=Nc2ccccc2)c([O-])c1.[Co+2]
5. Cc1ccc(S(=O)(=O)NC(=O)Nc2ncn[nH]2)cc1

Result:
36.2 µM
> 100 µM
> 50 µM
> 100 µM
> 100 µM

// batch mode: one TGI value per listed entry
1. COc1cc2c(cc1OCCCN1CCOCC1)N=C[C@@H]1CCCN1C2=O
2. O=C1NCC2(CCN(CC3COc4ccccc4O3)CC2)N1c1ccccc1 (stereo unspecified)
3. O=C(CC(=O)n1nc(-c2ccccc2)c(N=Nc2ccc([N+](=O)[O-])cc2)c1-c1ccccc1)Nc1ccc(Cl)cc1
4. C(#Cc1ccccc1C#Cc1cnccn1)c1cnccn1
5. CCOP(=O)(OCC)/C(C#N)=C/c1cccn1C
6. COc1cccc2c1C(=O)c1c(O)c3c(c(O)c1C2=O)C[C@@](O)(C(=O)CO)C[C@@H]3OC1CC2C(OCN2CN2COC3C(C)OC(O[C@H]4C[C@](O)(C(=O)CO)Cc5c(O)c6c(c(O)c54)C(=O)c4c(OC)cccc4C6=O)CC32)C(C)O1 (stereo partly specified)
7. Cc1ccc(-c2csc3ncnc(Nc4cccc(O)c4)c23)cc1

Result:
1. 87.5 µM
2. > 100 µM
3. 42.3 µM
4. > 100 µM
5. > 100 µM
6. 0.0207 µM
7. > 100 µM

// batch mode: one TGI value per listed entry
1. CC(=O)O[C@H]1[C@@H](N2CCCCC2)C[C@H]2[C@@H]3CC=C4C[C@@H](N5CCCC5)CC[C@]4(C)[C@H]3CC[C@@]21C
2. c1ccc(CSCCC(SCc2ccccc2)SCc2ccccc2)cc1

Result:
1: > 100 µM; 2: > 10 µM

// batch mode: one TGI value per listed entry
1. C=C1C(=O)OC2/C=C(\CO)C3OC3C3OC3(C)CC(OC(=O)/C(=C/C)COC(C)=O)C12 (stereo unspecified)
2. CC(=O)/C=C1/C(=O)C(CC(C)C)=C1CC(C)C

Result:
["45.7 µM", "> 100 µM"]

* * *

I'd appreciate it if you could supply TGI values for the items below.
# System: OVCAR-5 ovarian
# assay_comment: NCI tumour cell line growth inhibition, 48 h
Answers are plain numbers, in µM.

Worked set:
O=C(/C=C/c1cccc(Cl)c1)c1ccccc1    24.5
O=C1C=CC(=O)N1c1ccc2ccccc2c1    34

Now consider the entry below.
TGI measured on CC[C@@]1(O)C(=O)OCc2c1cc1n(c2=O)Cc2cc3c(N)c(OC)ccc3nc2-1 = 0.842

* * *

# Test system: SW-620 colon
# assay_comment: NCI tumour cell line growth inhibition, 48 h
Classification field: true (1) = TGI at or over 30 µM; false (0) = TGI under 30 µM.

Answered cases to consult:
Cc1cc(N)c2cc(NC(=O)/C=C\c3ccccc3Cl)ccc2n1    false (0)
O=C(O)C(C1NCCS1)N1C(=O)c2ccccc2C1=O (stereo unspecified)    true (1)
COc1cc2c(cc1OCCCN1CCN(CCCOc3cc4c(cc3OC)C(=O)N3C[C@H](F)C[C@H]3C=N4)CC1)N=C[C@@H]1C[C@@H](F)CN1C2=O    false (0)
CSCCCNC(=O)c1csc(-c2csc(CCNC(=O)CNC(=O)OC(C)(C)C)n2)n1    true (1)
O=C1CC[C@@H]2[C@H]3CCC(=O)c4c3c(c3cccc(O)c3c4O)O[C@@]23C(=O)c2cccc(O)c2C(O)=C13    true (1)

Alright, here's another compound for you.
Ask: State whether the measured TGI reaches 30 µM, counting equality as reaching it, for CC(C)(C)c1ccc(OCCCCCCCN2CCNCC2)cc1
Result: false (0)

* * *

# Tested on: HOP-92 NSCLC
# assay_comment: NCI tumour cell line growth inhibition, 48 h
quantity_name: GI50

Worked set:
C=CCC(NCc1ccccc1)c1cn(C(=O)OCC)c2ccccc12 (stereo not given)    13.8 µM
CCn1cnc(C[C@H](NC(=O)[C@@H](NC(=O)Nc2cc(C(F)(F)F)cc(C(F)(F)F)c2)C(C)(C)C)C(=O)OC)c1    > 10 µM
NC(=O)c1c(NC(=O)c2ccc(C(F)(F)F)cc2Cl)sc2c1CCC(=O)C2    0.426 µM
CCOC(=O)c1nc2sc(Cl)cn2c1/C=N/N=C(N)N    20 µM

Now consider the entry below.
// assay HOP-92 NSCLC, entry Nc1ccccc1SC(CC(=O)c1ccccc1)c1c(Cl)cccc1Cl (stereo not given) , GI50 value = 6.11 µM

* * *

I'd appreciate it if you could supply TGI values for the items below.
# System: CAKI-1 renal
# assay_comment: NCI tumour cell line growth inhibition, 48 h

Worked set:
O=C(OCc1ccccc1)N1N=NC2C3CC(OCc4ccccc4)(OCc4ccccc4)C(O3)C21 (stereo unspecified)    > 100 µM
CC(C)CC1C(=O)OC(C)(C)OC1=O    > 100 µM
O=C(O)C(Cc1ccc(O)cc1)N=Cc1nc(-c2ccccc2)oc1O (stereo unspecified)    > 100 µM
Nc1nc2cc(COc3ccc(C(=O)O)cc3)ccc2nc1-c1ccccc1    > 10 µM
COc1ccc2c(c1)C1Oc3ccccc3CC1CO2 (stereo unspecified)    > 100 µM

// batch mode: one TGI value per listed entry
1. COc1cc(CNc2ccc(C)cc2)cc(OC)c1OC
2. COC(=O)c1cc2c3cc(Cl)ccc3[nH]c2c2ncccc12
3. O=C1c2ccccc2-n2c1nc1ccc([N+](=O)[O-])cc1c2=O

Result:
1: > 100 µM; 2: > 100 µM; 3: 99.7 µM

* * *

# Tested on: SNB-19 CNS
# assay_comment: NCI tumour cell line growth inhibition, 48 h
I'd appreciate it if you could supply TGI values for the items below.
Answers are plain numbers, in µM.

Worked set:
CC[n+]1c(/C=C/c2cc(C(=O)OC)n3c2sc2ccccc23)sc2ccccc21    44
Cc1ccccc1-n1c(=O)nc2n(-c3ccc(C(C)(C)C)cc3)c3ccccc3cc-2c1=O    54.4
CCc1n(Cc2ccc3ccccc3c2)cc[n+]1Cc1ccc2ccccc2c1    1.82

// batch mode: one TGI value per listed entry
1. COc1cc2c(/C=C3/C(=O)Nc4cc(C)c(O)cc43)c(Cl)[nH]c2cc1C
2. COc1ccc(/C=C2\CC3C4CC=C5C[C@@H](N6CCCC6)CC[C@]5(C)C4CC[C@]3(C)[C@H]2O)cc1OC (stereo partly drawn)
3. C1=C(c2ccccc2)NC2=N[C@H]3CCCC[C@@H]3N2C1c1ccccc1 (stereo partly drawn)
4. CCN(CC)CCNc1ccc2nc(C)n3c4ccc(OC)cc4c(=O)c1c23
5. CCOC(=O)C1=C(C)N(Cc2ccccc2)C2(O)C=CC(=O)C3C(=O)N(c4ccccc4)C(=O)C132 (stereo not drawn)
6. O=C1/C(=C/c2ccccc2)CN(C(=O)/C=C/c2ccccc2)C/C1=C\c1ccccc1
7. C=C(Cl)C(Cl)(CBr)CCCC(C)C (stereo not drawn)

Result:
[14.8, 19.1, 27.7, 13.7, 21.4, 25.9, 47.4]

* * *

# System: M14 melanoma
# assay_comment: NCI tumour cell line growth inhibition, 48 h
Where a SMILES comes first, the peptide text is derived from it. [ ]: non-standard residue; d: D form. The star is where a group is joined. Phe(4-NO2) = N[CH](Cc1ccc([N+](=O)[O-])cc1)C(=O)O; Cbz = O=C(OCc1ccccc1)*
I'd appreciate it if you could supply TGI values for the items below.

Worked set:
COc1ccc(-c2c(C#N)c(N)nc(Sc3ccccc3N)c2C#N)cc1    > 100 µM
COc1cc(C)cc2c1C(=O)C(NC(C)=O)=CC2=O    > 100 µM
CCOC(=O)CCC(NC(=O)c1ccc(Oc2nc3cc(N)cc(N)c3nc2-c2ccccc2)cc1)C(=O)OCC (stereo not drawn)    > 100 µM
O=C1C2C3C=CC(C2C(=O)N1CN1CCOCC1)C1C2C(=O)N(CN4CCOCC4)C(=O)C2C31 (stereo not drawn)    > 57.2 µM
COc1cc(CNc2ccc(C)cc2)cc(OC)c1OC    > 100 µM
O=C(Nc1cccc2[nH]c(C(F)(F)F)nc12)c1ccc(Br)cc1F    14.5 µM
O=C1/C(=C/c2ccc([N+](=O)[O-])s2)Oc2ccc(Br)cc21    1.9 µM
CN(C)Cc1cc(C(=O)/C=C/c2ccc(Cl)cc2Cl)cc(CN(C)C)c1O    13.3 µM

// batch mode: one TGI value per listed entry
1. CN(C)Cc1c[nH]c2nc[nH]c(=O)c12
2. CC1=NN(c2nc(N)nc(CCl)n2)C(C)(C)C1
3. C1=C(c2ccccc2)NC2=N[C@H]3CCCC[C@@H]3N2C1c1ccccc1 (stereo partly drawn)
4. O=C1CSc2ccnc(=O)n21

Result:
1. > 100 µM
2. > 75.4 µM
3. 25.5 µM
4. > 100 µM

// batch mode: one TGI value per listed entry
1. NC(N)=N/N=C/c1c(Cl)nc2n1CCS2
2. CCC(=O)NC(NNS(=O)(=O)c1ccc(C)cc1)(C(F)(F)F)C(F)(F)F
3. COc1cc(C(C)c2cc3c(cc2OCCCCCOc2cc4c(cc2C(C)c2cc(OC)c(OC)c(OC)c2)OCO4)OCO3)cc(OC)c1OC (stereo not drawn)
4. CC1Nc2ccccc2NC1C=C(C#N)C#N (stereo not drawn)
5. O=C(O)C(Cc1ccc(O)cc1)N=Cc1nc(-c2ccccc2)oc1O (stereo not drawn)
6. O=[N+]([O-])C(=C1c2ccccc2-c2ccccc21)[N+](=O)[O-]
7. CCOC(=O)C1=C(C)N(Cc2ccccc2)C2(O)C=CC(=O)C3C(=O)N(c4ccccc4)C(=O)C132 (stereo not drawn)

Result:
["> 100 µM", "> 100 µM", "> 100 µM", "25.7 µM", "> 100 µM", "> 100 µM", "3.92 µM"]

// batch mode: one TGI value per listed entry
1. O=[N+]([O-])c1cc2c(ccc3ccccc32)o1
2. COc1ccccc1OC/C(N=Cc1cccnc1)=N/NC(=O)c1ccncc1
3. Nc1ncnc2c1ncn2C1OC(F)(COS(N)(=O)=O)C(O)C1O (stereo not drawn)
4. COC(=O)c1c(C)c2c(c(C)c1O)OC(=O)c1c(C)cc(O)c(C=O)c1O2
5. O=C1OC(=O)c2c1cc1cc3c(cc1c2-c1ccc2c(c1)OCO2)OCO3
6. COC(=O)C1=CCC[C@H]2[C@@]1(COC(C)=O)CC[C@@H](C)[C@]2(C)CC(=O)c1ccoc1
7. COc1cc2c(cc1OCCCN1CCOCC1)N=C[C@@H]1CCCN1C2=O
8. CC1(c2cccc(C(F)(F)F)c2)CC(c2cccc(C(F)(F)F)c2)=C(C#N)C(=C(C#N)C#N)N1 (stereo not drawn)

Result:
1. 0.472 µM
2. > 100 µM
3. > 100 µM
4. > 100 µM
5. > 100 µM
6. > 50 µM
7. 29.1 µM
8. 37.4 µM

// batch mode: one TGI value per listed entry
1. c1ccc([P+](Cc2ccc(C[P+](c3ccccc3)(c3ccccc3)c3ccccc3)s2)(c2ccccc2)c2ccccc2)cc1
2. CCOC(=O)CCC(NC(=O)OCc1ccccc1)C(=O)NC(CCC(=O)OCC)C(=O)NC(CCC(=O)OCC)C(=O)NC(CCC(=O)OCC)C(=O)NC(CCC(=O)OCC)C(=O)NC(Cc1ccc([N+](=O)[O-])cc1)C(=O)NC(CCC(=O)OCC)C(=O)NC(CCC(=O)OCC)C(=O)NC(CCC(=O)OCC)C(=O)NC(CCC(=O)OCC)C(=O)NC(CCC(=O)OCC)C(=O)OCC (stereo not drawn) (Cbz-E(OEt)E(OEt)E(OEt)E(OEt)E(OEt)[Phe(4-NO2)]E(OEt)E(OEt)E(OEt)E(OEt)E(OEt)-OEt; configuration not given here)
3. O=C(O)CNc1ncc2c(n1)-c1ccccc1OC2
4. O=C1/C(=C/c2ccc([N+](=O)[O-])cc2)Oc2cc(O)ccc21
5. Fc1nc(-c2c3ccccc3c3sc4ccccc4n23)nc(N2CCOCCOCCOCCOCC2)n1

Result:
["> 100 µM", "> 50 µM", "> 100 µM", "> 100 µM", "> 100 µM"]

// batch mode: one TGI value per listed entry
1. O=C1c2c[n+](Cc3ccccc3)ccc2-c2nc3ccccc3c3ccnc1c23
2. NNC(=O)c1cc(Cl)ccc1NC(=O)C12CC3CC(CC(C3)C1)C2
3. Cc1ccccc1-n1c(=O)nc2n(-c3ccc(C(C)(C)C)cc3)c3ccccc3cc-2c1=O
4. CCc1cccc(CC)c1Nc1nc(-c2ccccc2-c2ccccc2)cs1
5. CCN(CC)CCNc1ccc2nc(C)n3c4ccc(OC)cc4c(=O)c1c23

Result:
1. 0.969 µM
2. 31.8 µM
3. 32.4 µM
4. > 100 µM
5. 24.1 µM

TGI measured on Cc1ncc2c(n1)CCC1=C2OS(=O)(=O)CC1N(C)C (stereo not drawn) = > 100 µM
